# System: SN12C renal
# experimentalDetails: NCI-60 one-dose screen, 48 h (100 = growth as untreated, 0 = no growth, -100 = all killed)
# measurementContext: 10 µM
Compounds without any hit were thinned out: in the full panel of roughly 83,000, 20% have a hit.
Field: growth. Provide a value for each of the compounds that follow.
One number for each entry, in %.

Below are worked cases with known answers.
{"smilesCode": "CCOc1nc(-c2ccccc2)cc2c(O)c(C(=O)NC(C)C)[nH]c(=O)c12", "unitAbbreviation": "%", "growth": 114}
{"smilesCode": "CCCCc1ccc(NC(=O)N(CCCl)N=O)cc1", "unitAbbreviation": "%", "growth": 96.1}

Now consider a different compound.
Endpoint output: growth of COC(=O)c1ccc(Cn2ccc(=O)[nH]c2=O)cc1 . Value? 104

Sourced from PubChem BioAssay (NCI)
